From: PubChem BioAssay (NCI)

Test system: MALME-3M melanoma
Method summary: NCI tumour cell line growth inhibition, 48 h
Catalogue of TGI readings, one per entry.

Lab book: TGI of CCC(=O)Nc1ccc(N=NN(C)C)cc1 noted as > 100 µM

Lab book: TGI of CSC(SC)=C1C(=O)N(c2ccccc2)N=C1C noted as 58.8 µM

Lab book: TGI of O=C(O)CSc1n[nH]c(Cc2ccccc2)n1 noted as > 100 µM

Lab book: TGI of O=C(NO)c1ccc(CN(c2cnccn2)c2cnccn2)cc1 noted as 23.8 µM

Lab book: TGI of O=C1c2cccc(NCCNCCO)c2C(=O)c2cccc(NCCNCCO)c21 noted as 3.65 µM

Lab book: TGI of COc1ccccc1N1CCN(CCCNC(=O)c2cc(Cl)c(N)c(Cl)c2)CC1 noted as 37.7 µM

Lab book: TGI of COC(=O)CCC1=C(CC(=O)OC)C(C)=N/C1=C\c1[nH]c(-c2ccc[nH]2)cc1OC noted as 23.3 µM

###

Tested on: UO-31 renal
Method summary: NCI tumour cell line growth inhibition, 48 h; in the data active means GI50 below about 0.43 µM; inactive means the rest
Answer with one of the outcomes given here: active, inactive

Record request — test call for Cn1c(=O)c2c(ncn2CC(=O)Nc2ccc(-c3ccccc3)nn2)n(C)c1=O
inactive

Record request — test call for O=C(OCc1ccc2c(Cl)cc(Cl)c(O)c2n1)N1CCN(C(=O)c2cc3cc(F)ccc3[nH]2)CC1
inactive

Record request — test call for COc1ccc(-c2csc(NC(=O)CSc3nc(C)c(-c4ccccc4)n3Nc3ccccc3)n2)cc1
inactive

Further cases:
Record request — test call for Cn1cc(-c2ccc(-c3cncc(Cl)c3N3CCC4(CCNC4=O)CC3)cc2)cn1
inactive

Record request — test call for C/C(=N\NC(=S)N1CC2CCC(CC2)C1)c1ccccn1
active

Record request — test call for CN1CCN(c2ccc(Nc3ncc4cc(C#N)c(=O)n(C5CCCC5)c4n3)cc2)CC1
active

Record request — test call for N#Cc1ccc(OC(=O)Nc2ccc(Cl)c(Cl)c2)cc1
inactive

###

Tested on: M14 melanoma
Method summary: NCI tumour cell line growth inhibition, 48 h
Readout label: TGI

Example entries begin here.
Lab book: TGI of Cc1cccc(N=C2NC(=O)C(CC(=O)Nc3cccc(C)c3C)S2)c1 (stereo unspecified) noted as > 100 µM

Lab book: TGI of Cc1cc2c(nn1)-c1ccccc1C2=O noted as > 10 µM

Lab book: TGI of Oc1ccc(Br)cc1C=Nc1ccc(N=Cc2cc(Br)ccc2O)cc1 noted as > 100 µM

Lab book: TGI of COC(=O)c1cc(C)ccc1CC(Cc1ccc(C)cc1)C(=O)OC (stereo unspecified) noted as > 100 µM

Further cases:
Lab book: TGI of CN(C)CCSc1nccc(-c2cc3ccccc3s2)n1 noted as 32.3 µM

Lab book: TGI of CN1COCc2cc3cc4c(cc3nc21)OCCO4 noted as > 100 µM

###

Test system: ACHN renal
Method summary: NCI tumour cell line growth inhibition, 48 h; in the data active = GI50 below about 0.43 µM; inactive = the rest
Answer with one of the outcomes given here: label 1 for active, label 0 for inactive

Answered examples (3):
Record request — test call for O=C([CH-]C(=O)c1ccccc1)c1ccccc1.O=C([CH-]C(=O)c1ccccc1)c1ccccc1.[O]=[U+2]=[O]
label 0

Record request — test call for S=C1SC2=Nc3ccccc3CN2C2=NCCN12
label 0

Record request — test call for O=C(NCc1ccc(S(=O)(=O)c2cc(F)cc(F)c2)cc1)c1ccc2nccn2c1
label 0

Now for another entry.
Record request — test call for CC[C@@]1(O)C(=O)OCc2c1cc1n(c2=O)Cc2c-1nc1cc(F)c(C)c3c1c2[C@@H](N)CC3
label 1

###

Tested on: HS 578T breast
Method summary: NCI tumour cell line growth inhibition, 48 h
Please use true whenever TGI is not below 50 µM, and false whenever it is.

Answered examples (5):
Reported TGI at or above 50 µM? COC(=O)[C@H](Cc1ccccc1)NC(=O)c1ccc(CNC(=O)/C=C/c2cccc(Oc3ccccc3)c2)cc1
false

Reported TGI at or above 50 µM? O=C(O)c1ccc2c(c1)CC1(C2)Cc2cc3c(cc2C1=O)CCC3 (centres undefined)
true

Reported TGI at or above 50 µM? COC(=O)C1(Cc2ccc3c(c2)CCC3)Cc2cc3c(cc2C1)CCC3
true

Reported TGI at or above 50 µM? Cc1c2ccncc2c(C)c2c1[nH]c1ccccc12
false

Reported TGI at or above 50 µM? CC12CC1C(c1cccc([N+](=O)[O-])c1)(c1cccc([N+](=O)[O-])c1)N=N2 (centres undefined)
true

Further cases:
Reported TGI at or above 50 µM? Cn1ccnc1Sc1ccc(C=Nc2ccc3nc(SCC(=O)NC4CCCCC4)sc3c2)cc1[N+](=O)[O-]
true

Reported TGI at or above 50 µM? CC/C=C/C/C=C/C/C=C/C/C=C/C/C=C/C/C=C/CCC(=O)Nc1ccn([C@@H]2O[C@H](CO)[C@@H](O)C2(F)F)c(=O)n1
true

Reported TGI at or above 50 µM? CC[C@@]1(O)C(=O)OCc2c1cc1n(c2=O)Cc2c-1nc1cc(F)c(C)c3c1c2[C@@H](N)CC3
true

###

Catalogue of TGI readings, one per entry.
Tested on: RPMI-8226 leukemia
Method summary: NCI tumour cell line growth inhibition, 48 h

Example entries begin here.
Lab book: TGI of CC(=O)OCCOCNC(=S)N/N=C/c1ccc(Br)s1 noted as > 100 µM

Lab book: TGI of CC(C)CCn1nc(N)c2nc3ccccc3nc21 noted as > 100 µM

Lab book: TGI of COC(=O)c1cc(/C=C/c2ccc(S(N)(=O)=O)cc2)ccc1O noted as > 100 µM

Further cases:
Lab book: TGI of O=C1CCCc2cc3c(cc21)CC1(C3)Cc2ccc3c(c2C1)C(=O)CCC3 (stereo not drawn) noted as 50.8 µM

Lab book: TGI of CCCCC#CS(=O)(=O)C(F)(F)F noted as > 100 µM

Lab book: TGI of COc1ccc(/C=N/N2C(=O)c3c(N)c(C#N)c(-c4ccccc4)c(-c4ccccc4)c3C2=O)cc1 noted as > 100 µM

Lab book: TGI of COC(=O)C1(Cc2ccc3c(c2)CCC3)Cc2ccccc2C1=O (stereo not drawn) noted as 58.7 µM

Lab book: TGI of COc1ccc(N=NC(=Nc2ccc(F)cc2)c2ccc(N(CCC#N)CCC#N)cc2)cc1 noted as > 100 µM

###

Catalogue of TGI readings, one per entry.
System: HCT-15 colon
Method summary: NCI tumour cell line growth inhibition, 48 h

Lab book: TGI of OCC(O)CNc1ccnc2cc(Cl)ccc12 (configuration not stated) noted as > 100 µM

Lab book: TGI of COc1ccc2c(Oc3ccc(NC(=O)c4c(C)n(CC(C)(C)O)n(-c5ccccc5)c4=O)nc3)ccnc2c1 noted as > 100 µM

Lab book: TGI of O=C(CCCN1CCC2(CC1)C(=NC1CCCCC1)NC(=O)N2c1ccccc1)c1ccc(F)cc1 noted as > 100 µM

Lab book: TGI of CC1C(=O)OC2CC[N+]3([O-])CC=C(COC(=O)C(C)(O)C1(C)O)C23 (configuration not stated) noted as > 100 µM

Lab book: TGI of CC1=CC(=O)CC2(C)CCC(C(C)CC(=O)CC(C)C)CC12 (configuration not stated) noted as > 100 µM

Lab book: TGI of O=C(Nc1ccc(Cl)c(Cl)c1)Nc1ccccc1O noted as 23.9 µM

Lab book: TGI of O=c1[nH]c(=O)n([C@H]2CCCO2)cc1F noted as > 5000 µM

Lab book: TGI of COC(=O)c1cc2c(cc1CC(Cc1ccc3c(c1)CCC3)C(=O)OC)CCC2 (configuration not stated) noted as > 100 µM

Further cases:
Lab book: TGI of CC1=CC(=O)C(C(O)(C(F)(F)F)C(F)(F)F)C(C)(C)C1 (configuration not stated) noted as > 10 µM

Lab book: TGI of CCCCN(CCCC)C(=C(C(Cl)=C(Cl)Cl)[N+](=O)[O-])N(CCCC)CCCC noted as > 100 µM

Lab book: TGI of COc1cc(CNc2nc3cc(C(F)(F)F)ccc3nc2-c2ccccc2)cc(OC)c1OC noted as 56 µM

Lab book: TGI of COc1ccc2c(c1)CCN=C2c1ccccc1CCCCl noted as 74.1 µM

###

System: KM12 colon
Method summary: NCI tumour cell line growth inhibition, 48 h
Readout label: TGI (µM)
Supply the numeric figure in µM, leaving out any unit text.

Lab book: TGI of COC(=O)C1(Cc2ccc3c(c2)CCC3)Cc2ccccc2C1=O (stereo not given) noted as 20.3

Here is the next item to consider.
Lab book: TGI of COc1ccc(N=Nc2c3c(c(O)c4ccccc24)CCC(C)(C)O3)cc1 noted as 29.5
